- EXPERIMENT: PK of compound of Formula (Ia) after single subcutaneous dose of solution formulations in beagle dogs
- Assay type: in vivo
- STUDY CONDITIONS: male, beagle, dog, plasma, sc, 6 mg/kg, 3.00 h; mean (dog #2 BLQ); SC 6 mg/kg; solution V, 300 mg/mL
- Method: Formulations containing the compound of Formula (Ia), or a pharmaceutically acceptable salt thereof, were prepared as solutions and optionally administered subcutaneously or intramuscularly to rats, rabbits, and/or dogs. A solution of about 400 mg/mL of the compound of Formula (Ia) having 17.00 w/w % water, 36.40 w/w % PEG 300, 35.20 w/w % of a sodium salt of a compound of Formula (Ia), 5.00 w/w % ethanol, and 6.40 w/w % poloxamer 188 was prepared. […]
READOUT: concentration at 3 h
Remember to put the unit after the number in your answer.

Task: Indicate its recorded concentration at 3 h; the molecule in question is "CC(C)(C#Cc1ccc(-c2ccc(Cl)c3c(NS(C)(=O)=O)nn(CC(F)(F)F)c23)c([C@H](Cc2cc(F)cc(F)c2)NC(=O)Cn2nc(C(F)(F)F)c3c2C(F)(F)[C@@H]2C[C@H]32)n1)S(C)(=O)=O"
Output: 2.75 nM

* * *

- EXPERIMENT: PK of compound of Formula (Ia) after single intramuscular dose of solution formulations in Wistar Han rats
- Type: in vivo
- STUDY CONDITIONS: male, Wistar Han, rat, plasma, intramuscular, 100 mg/kg, Solution H (~400 mg/mL); IM 100 mg/kg; Wistar Han rats; mean, n = 4; 3.00 h; read-out: Plasma concentration, Mean
READOUT: concentration at 3 h (nM)
Numeric only. Scale: nM

Task: Indicate its recorded concentration at 3 h; the compound in question is "CC(C)(C#Cc1ccc(-c2ccc(Cl)c3c(NS(C)(=O)=O)nn(CC(F)(F)F)c23)c([C@H](Cc2cc(F)cc(F)c2)NC(=O)Cn2nc(C(F)(F)F)c3c2C(F)(F)[C@@H]2C[C@H]32)n1)S(C)(=O)=O"
Output: 245

* * *

- EXPERIMENT: PK of compound of Formula (Ia) after single subcutaneous dose of solution formulations in beagle dogs
- Type: in vivo
- STUDY CONDITIONS: male, beagle, dog, plasma, sc, 12 mg/kg, male beagle dogs, single SC 12 mg/kg, 500 mg/mL solution X (5.00% ethanol, 1.91% poloxamer 188), mean ± SD, n = 3; read-out: AUC0-1680 h
READOUT: AUC(0-t) (µM·h)
Numeric only. Scale: µM·h

Task: Indicate its recorded AUC(0-t); the compound in question is CC(C)(C#Cc1ccc(-c2ccc(Cl)c3c(NS(C)(=O)=O)nn(CC(F)(F)F)c23)c([C@H](Cc2cc(F)cc(F)c2)NC(=O)Cn2nc(C(F)(F)F)c3c2C(F)(F)[C@@H]2C[C@H]32)n1)S(C)(=O)=O [compound of Formula (Ia)]
Output: 106

* * *

- EXPERIMENT: PK of compound of Formula (Ia) after single subcutaneous dose of solution formulations in beagle dogs
- Type: in vivo
- STUDY CONDITIONS: male, beagle, dog, plasma, sc, 12 mg/kg, beagle dogs, SC 12 mg/kg, 400 mg/mL solution W (5.00% ethanol, 1.57% poloxamer 188), 2352 h, Mean n = 3
READOUT: concentration at 2352 h (nM)
Numeric only. Scale: nM

Task: Indicate its recorded concentration at 2352 h; the compound in question is "CC(C)(C#Cc1ccc(-c2ccc(Cl)c3c(NS(C)(=O)=O)nn(CC(F)(F)F)c23)c([C@H](Cc2cc(F)cc(F)c2)NC(=O)Cn2nc(C(F)(F)F)c3c2C(F)(F)[C@@H]2C[C@H]32)n1)S(C)(=O)=O"
Output: 21.9

* * *

- EXPERIMENT: PK of compound of Formula (Ia) after single subcutaneous dose of solution formulations in Wistar Han rats
- Assay type: in vivo
- STUDY CONDITIONS: male, Wistar Han, rat, plasma, sc, 50 mg/kg, 96.0 h; individual rats; SC 50 mg/kg; solution R, 400 mg/mL
READOUT: concentration at 96 h (nM)
Numeric only. Scale: nM

Task: Indicate its recorded concentration at 96 h; the molecule in question is "CC(C)(C#Cc1ccc(-c2ccc(Cl)c3c(NS(C)(=O)=O)nn(CC(F)(F)F)c23)c([C@H](Cc2cc(F)cc(F)c2)NC(=O)Cn2nc(C(F)(F)F)c3c2C(F)(F)[C@@H]2C[C@H]32)n1)S(C)(=O)=O"
Output: 181

* * *

- EXPERIMENT: PK of compound of Formula (Ia) after single subcutaneous dose of solution formulations in Wistar Han rats
- Format: in vivo
- STUDY CONDITIONS: male, Wistar Han, rat, plasma, sc, 50 mg/kg, Wistar Han rats, SC 50 mg/kg, 400 mg/mL solution Y (water, PEG 300), 3696 h, Mean n = 4
READOUT: concentration at 3696 h (nM)
Numeric only. Scale: nM

Task: Indicate its recorded concentration at 3696 h; the molecule in question is "CC(C)(C#Cc1ccc(-c2ccc(Cl)c3c(NS(C)(=O)=O)nn(CC(F)(F)F)c23)c([C@H](Cc2cc(F)cc(F)c2)NC(=O)Cn2nc(C(F)(F)F)c3c2C(F)(F)[C@@H]2C[C@H]32)n1)S(C)(=O)=O"
Output: 90.4

* * *

- EXPERIMENT: PK of compound of Formula (Ia) after single subcutaneous dose of solution formulations in beagle dogs
- Format: in vivo
- STUDY CONDITIONS: male, beagle, dog, plasma, sc, 12 mg/kg, beagle dogs, SC 12 mg/kg, 400 mg/mL solution Y (water, PEG 300), 2016 h, animals #1-#3
- Description: Formulations containing the compound of Formula (Ia), or a pharmaceutically acceptable salt thereof, were prepared as solutions and optionally administered subcutaneously or intramuscularly to rats, rabbits, and/or dogs. A solution of about 400 mg/mL of the compound of Formula (Ia) having 17.00 w/w % water, 36.40 w/w % PEG 300, 35.20 w/w % of a sodium salt of a compound of Formula (Ia), 5.00 w/w % ethanol, and 6.40 w/w % poloxamer 188 was prepared. […]
READOUT: concentration at 2016 h
Remember to put the unit after the number in your answer.

Task: Indicate its recorded concentration at 2016 h; the molecule in question is "CC(C)(C#Cc1ccc(-c2ccc(Cl)c3c(NS(C)(=O)=O)nn(CC(F)(F)F)c23)c([C@H](Cc2cc(F)cc(F)c2)NC(=O)Cn2nc(C(F)(F)F)c3c2C(F)(F)[C@@H]2C[C@H]32)n1)S(C)(=O)=O"
Output: 17.7 nM

* * *

- EXPERIMENT: PK of compound of Formula (Ia) after single subcutaneous dose of solution formulations in beagle dogs
- Type: in vivo
- STUDY CONDITIONS: male, beagle, dog, plasma, sc, 12 mg/kg, mean ± SD, n = 3 dogs; SC 12 mg/kg; solution U, 500 mg/mL
READOUT: Tmax (days)
Numeric only. Scale: days

Task: Indicate its recorded Tmax; the compound in question is "CC(C)(C#Cc1ccc(-c2ccc(Cl)c3c(NS(C)(=O)=O)nn(CC(F)(F)F)c23)c([C@H](Cc2cc(F)cc(F)c2)NC(=O)Cn2nc(C(F)(F)F)c3c2C(F)(F)[C@@H]2C[C@H]32)n1)S(C)(=O)=O"
Output: 14.3

* * *

- EXPERIMENT: PK of compound of Formula (Ia) after single subcutaneous dose of solution formulations in Wistar Han rats
- Format: in vivo
- STUDY CONDITIONS: male, Wistar Han, rat, plasma, sc, 50 mg/kg, male Wistar Han rats, single SC 50 mg/kg, 400 mg/mL solution Z (3.13% poloxamer 188), mean ± SD, n = 4; read-out: AUC0-1008 h
READOUT: AUC(0-t) (µM·h)
Numeric only. Scale: µM·h

Task: Indicate its recorded AUC(0-t); the compound in question is CC(C)(C#Cc1ccc(-c2ccc(Cl)c3c(NS(C)(=O)=O)nn(CC(F)(F)F)c23)c([C@H](Cc2cc(F)cc(F)c2)NC(=O)Cn2nc(C(F)(F)F)c3c2C(F)(F)[C@@H]2C[C@H]32)n1)S(C)(=O)=O [compound of Formula (Ia)]
Output: 163

* * *

- EXPERIMENT: PK of compound of Formula (Ia) after single subcutaneous dose of solution formulations in Wistar Han rats
- Type: in vivo
- STUDY CONDITIONS: male, Wistar Han, rat, plasma, sc, 50 mg/kg, 1.00 h; mean, n = 3 rats; SC 50 mg/kg; solution R, 400 mg/mL
READOUT: concentration at 1 h
Remember to put the unit after the number in your answer.

Task: Indicate its recorded concentration at 1 h; the compound in question is CC(C)(C#Cc1ccc(-c2ccc(Cl)c3c(NS(C)(=O)=O)nn(CC(F)(F)F)c23)c([C@H](Cc2cc(F)cc(F)c2)NC(=O)Cn2nc(C(F)(F)F)c3c2C(F)(F)[C@@H]2C[C@H]32)n1)S(C)(=O)=O [compound of Formula (Ia)]
Output: 56.4 nM
